Molecular target: His-LiaR (Streptococcus mutans UA159)
Sequence: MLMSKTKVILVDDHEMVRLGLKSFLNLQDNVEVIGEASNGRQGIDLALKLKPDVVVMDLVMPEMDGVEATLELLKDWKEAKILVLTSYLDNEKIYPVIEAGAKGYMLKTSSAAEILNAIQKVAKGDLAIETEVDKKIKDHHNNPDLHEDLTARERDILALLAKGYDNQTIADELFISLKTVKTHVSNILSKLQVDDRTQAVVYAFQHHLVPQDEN
Assay: EMSA
Conditions: 20 mM Tris-Cl pH 7.5, 100 mM NaCl, 0.01 mM DTT, 5% glycerol, 1 mM EDTA, 0.01 mg/ml BSA, 5 mM MgCl2, 10 ug/ml poly(dI-dC), 30 min (EMSA); BLI in binding buffer …

ordered residues	binding
GTTTATTCAAGAAATTCGCAAAGGTCCATCTCCTTTTTCTAAAGTCACTTATGTTGACGTCAATATAGCAAATTTTTCTGATTACCATGATTTCAGAATGGCCAATTAATTTATCTCAAAATCATTCTCAAGAACTATTGAGTATTTTACTAAAAAACAGTAAAATAGATAGGTATTATTAAAATCAAAGGAAGATTATC (double strand) [PSMU.1727]	binds
CCTAAGTCCACCTCCCATCTTTAATCAATAGAGTTAGCACTCTTAACAGACGACTGCTAACTTCATAATTCCATTATACTCCATTCCTAATTTCTGTCAAGAGAAAAATACAAAAAATTAGCACTCTTTCTGCTTGAGTGCTAAAAATCCGACTTAAGACTTAGTTTTATTGCTGT (double strand) [PhrcA]	binds

###

Molecular target: His-LiaR (Streptococcus mutans UA159) (UniProt Q8DVJ8)
Sequence: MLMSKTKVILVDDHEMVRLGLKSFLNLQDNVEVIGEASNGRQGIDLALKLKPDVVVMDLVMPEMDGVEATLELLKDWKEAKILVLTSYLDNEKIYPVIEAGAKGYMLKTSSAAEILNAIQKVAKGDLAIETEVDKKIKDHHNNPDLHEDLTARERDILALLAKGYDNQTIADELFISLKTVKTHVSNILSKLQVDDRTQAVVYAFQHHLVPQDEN
Assay: EMSA
Conditions: 20 mM Tris-Cl pH 7.5, 100 mM NaCl, 0.01 mM DTT, 5% glycerol, 1 mM EDTA, 0.01 mg/ml BSA, 5 mM MgCl2, 10 ug/ml poly(dI-dC), 30 min (EMSA); BLI in binding buffer …

ordered residues	binding
TTAATTGAGGAAGATAATACTGAAGAAAAACAGTCTTCTAAAGAAAAAGAAACTGATGAGAAAGCTGACAAAAACCTTGTTTTAGAGCTGGATGATACAATTGAGCTTGAAGATTAAATAAAAATAGGTCCCAAGACCGACTCTTTATTTAATAAGCTATGCTAAGATAATATTATCCTGTAAGGAAAGAGAGATTTAAAC (double strand) [PSMU.2084]	binds
ATTACCAATGTGAATCGTGTGGTCAAGTTTATCAAAGAAAAAGACGAATGAATACGAAAAAATACGCTTGTGGCAACTGCCATGGAAAATTAAGACATCAAAATCAGTCGTAAGGCTGATTTTATTCTTCTCTAAATAGTTTATACTAATAGCATCATGAGATTTGTGATTCATTTTTTAAAAAAGGGAGAGTTGTTTGT (double strand) [PSMU.753]	binds
